Attribute: drug sensitivity score
Tested on: U2OS
assay: drug sensitivity score (DSS) for viability; higher = more toxic; extreme values may be limits of the assay
conditions: 72 h

The cases that follow already have their drug sensitivity score on record.
{"compound": "O=C1NC(=O)/C(=C/c2ccc3c(c2)OC(F)(F)O3)S1", "outcome measure": "drug sensitivity score", "observed": 4}
{"compound": "CCCCCCCCCC(=O)OC1(c2ccc(Cl)cc2)CCN(CCCC(=O)c2ccc(F)cc2)CC1 [haloperidol-decanoate]", "outcome measure": "drug sensitivity score", "observed": 0}
{"compound": "CC(C)(Oc1ccc(Cl)cc1)C(=O)N1CSCC1C(=O)O (centres undefined) [timofibrate]", "outcome measure": "drug sensitivity score", "observed": 0}
{"compound": "N[C@H](C(=O)O)c1ccc(O)cc1 [oxfenicine]", "outcome measure": "drug sensitivity score", "observed": 0}
{"compound": "CCN(Cc1ccc(Cl)nc1)/C(=C/[N+](=O)[O-])NC [nitenpyram]", "outcome measure": "drug sensitivity score", "observed": 0}

For the compound CCCCCCCCCCCC[N+](C)(C)CCOc1ccccc1 [domiphen] , what drug sensitivity score is on record? 5.6

Quick one: drug sensitivity score of COc1cc2c(cc1OC)-c1c/c(=N\c3c(C)cc(C)cc3C)n(C)c(=O)n1CC2 [trequinsin] ? 0

GET /values?readout=drug sensitivity score&item= COc1cc(C[C@H](C)[C@H](C)Cc2ccc3c(c2)OCO3)ccc1O [macelignan] 0

Quick one: drug sensitivity score of C=C[C@@]1(C)CC(=O)[C@]2(O)[C@@]3(C)[C@@H](O)CCC(C)(C)[C@@H]3[C@H](O)[C@H](OC(C)=O)[C@@]2(C)O1 [colforsin] ? 0

Find the recorded drug sensitivity score belonging to Cc1ccccc1C(C(=O)NC1CCCCC1)N(C(=O)Cn1ccnc1C)c1cccc(F)c1 (centres undefined) [AGI-5198] and report it. 0

Would you mind telling me what drug sensitivity score value was observed for N#CSc1cc(SC#N)c(N)nc1N [PR-619] ? 0

Any idea what its drug sensitivity score is? The compound is COc1cc2c(NC3CCN(CC4CCCCC4)CC3)nc(N3CCCN(C(C)C)CC3)nc2cc1OCCCN1CCCCC1 [UNC0631] 1.2

Given the compound CC/C(=C(\c1ccc(O)cc1)c1ccc(OCCN(C)C)cc1)c1ccccc1 [afimoxifene] , what is its reported drug sensitivity score? 1.2

----------
Tested on: HepG2
assay: cell viability relative to DMSO; higher = less toxic
conditions: 72 h; 10 nM
outcome measure: cell viability (%)
Respond with the bare value in %.

{"molecule": "O=[N+]([O-])c1cn2c(n1)OC[C@@H](OCc1ccc(OC(F)(F)F)cc1)C2", "cell viability, %": 103}
{"molecule": "NC[C@@H](O)CC(=O)O [aminohydroxybutyric-acid]", "cell viability, %": 91.7}
{"molecule": "COc1ccc(CCNCC(O)COc2cccc(C)c2)cc1OC (stereo not given)", "cell viability, %": 87.2}
{"molecule": "C/C(O)=C(\\C#N)C(=O)Nc1cc(Br)ccc1Br", "cell viability, %": 99.7}

# next molecule below
Find the recorded cell viability belonging to COc1ccc(C2CC(c3c(O)cc(C)oc3=O)=NCCS2)c(OC)c1 (stereo not given) and report it. 106

----------
System: Vero E6
assay: cell viability relative to DMSO; higher = less toxic
conditions: 72 h; 1 nM
outcome measure: cell viability (%)
# number only, unit % dropped from output

Completed entries (count: 2):
{"compound": "CNC(=O)c1cnn(-c2nc(N)c3ncn([C@@H]4O[C@H](CO)[C@@H](O)[C@H]4O)c3n2)c1", "unit": "%", "observed": 101}
{"compound": "c1ccc2cc(C3=NCCN3)ncc2c1", "unit": "%", "observed": 96.6}

Endpoint output: cell viability of `COc1cc(S(C)(=O)=O)ccc1Nc1nc2ccc(-c3ccc(NC(=O)[C@H](C)c4ccc(F)cc4)cc3)cn2n1` . Value? 101

Fill blank: measured cell viability of the compound CC(C)CC(N)=O [isovaleramide] is ____. 102

Query (compound): `CCC[C@H](N[C@@H](C)C(=O)N1[C@H](C(=O)O)C[C@@H]2CCCC[C@@H]21)C(=O)OCC` ; field requested: cell viability 99.4

Ref: the supplement of paper PMC13380429
